// provenance: PubChem BioAssay (NCI)

test system: LOX IMVI melanoma; assay: NCI tumour cell line growth inhibition, 48 h
Documented TGI across a set of compounds

compound: C[C@]12O[C@@]3(C)O[C@@]3(C)[C@]3(C)O[C@]3(C)[C@@]1(C)O2
TGI: > 100 µM
//
compound: COc1ccc(OC)c2c1ccc1c(C)c3ccccc3c(C)c12
TGI: > 100 µM
//
compound: N#CC1=C(N)Oc2c(ccc3cccnc23)C1c1ccccc1 (stereo unspecified)
TGI: > 100 µM
//
compound: COc1ccc(/C=N/NC(=O)CSc2nc(-c3ccccc3)c(-c3ccccc3)[nH]2)cc1OC
TGI: 44.8 µM
//
compound: COc1ccc(/C=C2/C(=O)N(/C=C3\C(=O)Oc4ccccc4C3=O)C(=NC(C)=O)N2C)cc1OC
TGI: > 100 µM
//
compound: CSc1ccc(NC(=O)CCl)cc1
TGI: > 10 µM
//
compound: COC(=O)C1OC(SCCN)C(O)C(O)C1O (stereo unspecified)
TGI: > 100 µM
//
compound: NC1=C(/C(N)=N/O)C(c2ccccc2)c2ccc3ccccc3c2O1 (stereo unspecified)
TGI: 17.2 µM
//
compound: CC(C)(C)COS(=O)OCC(C)(C)C
TGI: > 100 µM
//
compound: CC(NNC(=S)N1CCN(c2ccccn2)CC1)c1cccc[n+]1[O-] (stereo unspecified)
TGI: 39.1 µM
//
compound: COc1ncc(-c2ccc3ncnc(Nc4cccc(Cl)c4)c3c2)cc1NS(C)(=O)=O
TGI: 11.1 µM
